# TEST: Human HepG2 cell viability assay in 384 well format
# Type: toxicity, cell-based
# Parameters: dose 125 nL, time 70.5 hour; concentration not given beside the values
# EXPERIMENTAL_CONDITIONS: HepG2 cells, read-out: Inhibition
Assignment: determine reported cytotoxicity at 70.5 h for the given compounds.
Lab note: write values as number then unit, every time.

Specify measured cytotoxicity at 70.5 h for `CNC(=O)C1(CCCc2ccccn2)CN(Cc2coc(C)n2)C1` .
-5.7%

Tell me its cytotoxicity at 70.5 h given `CN1CCN(S(=O)(=O)c2cccnc2)c2cnccc21` as the entry.
-3.64%

Using the record for `Cc1ccc(CN2CC[C@H]3OCC[C@@H](C(=O)NC4CC4)[C@@H]3C2)o1` , state its measured cytotoxicity at 70.5 h.
18.8%

Quote cytotoxicity at 70.5 h reported for Cn1cc(CCNC(=O)NC2CCS(=O)(=O)C2)cn1 (stereo unspecified) please.
-1.53%

State its cytotoxicity at 70.5 h: Cc1nc(NC2CCCC2)cc(C2CCN2C(=O)c2cnn(C)c2)n1 (stereo unspecified)
-3.93%

Answer with reported cytotoxicity at 70.5 h of `CNC(=O)c1cc2c(nc1NCC1CC1)CCN(S(=O)(=O)C1CC1)CC2`
2.84%

Identify measured cytotoxicity at 70.5 h corresponding to `Cc1nc(N)sc1C(=O)N[C@H]1CN(CCO)C[C@@H]1C1CC1`
-2.54%

Kindly indicate its recorded cytotoxicity at 70.5 h. Item: `O=C1CN(C(=O)c2cccc(OCc3cscn3)c2)CCN1`
-1.69%

Note down cytotoxicity at 70.5 h recorded for CC(C)Cn1cncc1CNC1CCCNC1 (stereo unspecified)
-4.78%

Consider the compound `O=C(c1ccc(O)cc1)N1C[C@@H]2OCCN(c3ncccn3)[C@@H]2C1` . State its measured cytotoxicity at 70.5 h.
-10.7%

Answer with reported cytotoxicity at 70.5 h of `O=C(NCCOc1ccc(F)c(F)c1)NCc1cccc(CO)c1`
-9.23%
